System: SR leukemia
assay_overview: NCI-60 one-dose screen, 48 h (100 = growth as untreated, 0 = no growth, -100 = all killed)
recorded_conditions: 10 µM unless noted
Compounds without any hit were thinned out: in the full panel of roughly 83,000, 20% have a hit.
Reported growth is given for each of the following compounds.
Expressed in %, but write only the number.

compound	u	measured
COc1ccc(N2C(=O)/C(=C/C(Cl)=C/c3ccc([N+](=O)[O-])cc3)SC2=S)cc1	%	-6.82
O=C(Nc1ccc2[nH]ncc2c1)c1csc(Nc2ccccc2)n1	%	22.8

Sure, the documented growth for CCCCCCCCCCCCCC[n+]1ccc2c(C)c3c(c(C)c2c1)c1cc(O)ccc1n3CC is -52.5

Sure, the documented growth for Cc1nn(C)c2ncnc(Nc3ccccc3Br)c12 is 84.8

Sure, the documented growth for CCOC(=O)CSc1nc2sc3c(c2c(=O)n1-c1ccccc1)CCCCC3 is 103

Sure, the documented growth for COc1cc2cc(Oc3ccc(NC(=O)Nc4ccc(Cl)c(Cl)c4)cc3)c(C)nc2cc1OCCN1CCCCC1 is -3.12

Sure, the documented growth for O=[N+]([O-])c1ccc(Oc2cccc3c(Oc4ccc([N+](=O)[O-])cc4[N+](=O)[O-])cccc23)c([N+](=O)[O-])c1 is 77.5

Sure, the documented growth for CC(C)(C)c1ccc(C(=O)Nc2sc3c(c2C#N)CCC(=O)C3)cc1 is 4.39

Sure, the documented growth for CO[C@H]1CC(c2ccc[nH]2)=N[C@]12O[C@@H](C)C[C@@H]1CCCCCCCc3ccc([nH]3)[C@H]12 is 9.34

Sure, the documented growth for Nc1nc(Nc2ccc([N+](=O)[O-])cc2O)nc(C(Cl)(Cl)Cl)n1 is 7.45

Sure, the documented growth for Cc1ccc(S(=O)(=O)c2nc(-c3ccccc3)oc2S(C)=O)cc1 (stereo not given) is -26.8

Sure, the documented growth for Cc1ccc(Nc2cc(N)nc(N)n2)cc1 is 105
